For each of the compounds below, state its Organ Mean Total Flux Muscle.
Test system: mouse organs
Assay: In vivo activity screening in mice: organ mean total flux (p/s) of luciferase activity after injection of F2 LNP pools (Table 6, FIG. 7A-7C)
Details: Mouse 11, dose 0.5 mg/kg, luciferase mRNA
Marks after values point to notes of the source that are not given here.

Kindly note the recorded Organ Mean Total Flux Muscle for CCCCC/C=C\CCOC(=O)CCCCCCC(=O)OCC(COC(=O)CCCCCCC(=O)OCC/C=C\CCCCC)(COC(=O)CCCCCCC(=O)OCC/C=C\CCCCC)COC(=O)CCC(CCCCCCCC)OC(=O)NCCN1CCCC1 (centres unmarked) , which is 2.0 p/s (×10^6)

Kindly note the recorded Organ Mean Total Flux Muscle for CCCCC/C=C\C/C=C\CCCCCCCCC(CCCCCCCC/C=C\C/C=C\CCCCC)OC(=O)CCCN(C)C [MC3, reference compound] , which is 2.7 p/s (×10^6)

Kindly note the recorded Organ Mean Total Flux Muscle for CCCCCCCC(C)OC(=O)CCCCCCC(=O)OCC(COC(=O)CCCCCCC(=O)OC(C)CCCCCCC)(COC(=O)CCCCCCC(=O)OC(C)CCCCCCC)COC(=O)CCC(CCCCCC)OC(=O)NCCN1CCCC1 (centres unmarked) , which is 5.2 p/s (×10^6)

Kindly note the recorded Organ Mean Total Flux Muscle for CCCC/C=C\CCOC(=O)CCCCCC(=O)OCC(COC(=O)CCCCCC(=O)OCC/C=C\CCCC)(COC(=O)CCCCCC(=O)OCC/C=C\CCCC)COC(=O)CCC(CCCCCC)OC(=O)NCCN1CCCC1 (centres unmarked) , which is 22.6 p/s (×10^6)

Kindly note the recorded Organ Mean Total Flux Muscle for CCCC/C=C\CCOC(=O)CCCCCCCC(=O)OCC(COC(=O)CCCCCCCC(=O)OCC/C=C\CCCC)(COC(=O)CCCCCCCC(=O)OCC/C=C\CCCC)COC(=O)CCC(CCCCCC)OC(=O)NCCN1CCCC1 (centres unmarked) , which is 4.1 p/s (×10^6)

Kindly note the recorded Organ Mean Total Flux Muscle for CCCCCCCCC(C)OC(=O)CCCCCCC(=O)OCC(COC(=O)CCCCCCC(=O)OC(C)CCCCCCCC)(COC(=O)CCCCCCC(=O)OC(C)CCCCCCCC)COC(=O)CCC(CCCCCC)OC(=O)NCCN1CCCC1 (centres unmarked) , which is 11.0 p/s (×10^6)

Kindly note the recorded Organ Mean Total Flux Muscle for CCCCCCCCCOC(=O)CCCCCCC(=O)OCC(COC(=O)CCCCCCC(=O)OCCCCCCCCC)(COC(=O)CCCCCCC(=O)OCCCCCCCCC)COC(=O)CCC(CCCCCC)OC(=O)NCCN1CCCC1 (centres unmarked) , which is 3.0 p/s (×10^6)

Kindly note the recorded Organ Mean Total Flux Muscle for CCCCC/C=C\CCOC(=O)CCCCC(=O)OCC(COC(=O)CCCCC(=O)OCC/C=C\CCCCC)(COC(=O)CCC(CCCCCC)OC(=O)NCCN1CCCC1)COC(=O)CC12CC3CC(CC(C3)C1)C2 (centres unmarked) , which is 24.2 p/s (×10^6)

Kindly note the recorded Organ Mean Total Flux Muscle for CCCCC/C=C\CCCOC(=O)CCCCCCC(=O)OCC(COC(=O)CCCCCCC(=O)OCCC/C=C\CCCCC)(COC(=O)CCCCCCC(=O)OCCC/C=C\CCCCC)COC(=O)CCC(CCCCCC)OC(=O)NCCN1CCCC1 (centres unmarked) , which is 4.2 p/s (×10^6)

Kindly note the recorded Organ Mean Total Flux Muscle for CCCCC/C=C\CCCOC(=O)CCCCCC(=O)OCC(COC(=O)CCCCCC(=O)OCCC/C=C\CCCCC)(COC(=O)CCCCCC(=O)OCCC/C=C\CCCCC)COC(=O)CCC(CCCCCC)OC(=O)NCCN1CCCC1 (centres unmarked) , which is 5.6 p/s (×10^6)

Kindly note the recorded Organ Mean Total Flux Muscle for CCCCC/C=C\CCOC(=O)CCCCCC(=O)OCC(COC(=O)CCCCCC(=O)OCC/C=C\CCCCC)(COC(=O)CCCCCC(=O)OCC/C=C\CCCCC)COC(=O)CCC(CCCC)OC(=O)NCCN1CCCC1 (centres unmarked) , which is 6.2 p/s (×10^6)
